Reported pKd values follow for various binders
Molecular target: T1, SPSB2 (Homo sapiens, UniProt Q99619)
T1 chain: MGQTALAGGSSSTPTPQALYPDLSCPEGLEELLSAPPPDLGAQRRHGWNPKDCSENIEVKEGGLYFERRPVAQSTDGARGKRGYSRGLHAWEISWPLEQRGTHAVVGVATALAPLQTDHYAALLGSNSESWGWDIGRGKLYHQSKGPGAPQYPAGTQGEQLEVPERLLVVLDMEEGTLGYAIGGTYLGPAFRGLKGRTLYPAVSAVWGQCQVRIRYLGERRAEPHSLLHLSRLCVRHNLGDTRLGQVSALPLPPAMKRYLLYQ
Experiment: SPR
pKd: −log10 of the molar value. Bridges are numbered along the chain shown (N, C = ends). Where no end group is shown, it is not given here. [ ]: non-standard residue; d: D form. pyrrolidinyl‑spirobarbiturate (VII) = not defined here; N‑phenyl fused di‑pyrrolidine (II) = not defined here; N‑methyl fused di‑pyrrolidine (I) = not defined here; ortho ether aromatic unit (VIII) = not defined here; phenylmethanamine linker (IX) = not defined here; NP‑inspired fragment III = not defined here; pyrrolidine (IV) = not defined here; NMeF = CN[C@@H](Cc1ccccc1)C(=O)O; NMeL = CN[C@@H](CC(C)C)C(=O)O; NMeV = CN[C@H](C(=O)O)C(C)C
readout: pKd

INSERT INTO assay_data (binder, readout, value_reported) VALUES
  ('[NMeL]DINNNKG-NH2 (bridge (positions not given here) via N‑methyl fused di‑pyrrolidine (I); reading uncertain; also: macrocycle via N-methyl fused di-pyrrolidine (I), minor diastereomer) [PepNat D12-minor]', 'pKd', 6.90),
  ('[NMeF]DINNNKG-NH2 (bridge (positions not given here) via N‑phenyl fused di‑pyrrolidine (II); reading uncertain; also: macrocycle via N-phenyl fused di-pyrrolidine (II)) [PepNat D2-major]', 'pKd', 6.64),
  ('[NMeV]DINNNKG-NH2 (bridge (positions not given here) via N‑methyl fused di‑pyrrolidine (I); reading uncertain; also: macrocycle via N-methyl fused di-pyrrolidine (I)) [PepNat D13-major]', 'pKd', 7.82),
  ('[NMeV]DINNNKG-NH2 (bridge (positions not given here) via N‑methyl fused di‑pyrrolidine (I); reading uncertain; also: macrocycle via N-methyl fused di-pyrrolidine (I), minor diastereomer) [PepNat D13-minor]', 'pKd', 7.11),
  ('[NMeF]DINNNKG-NH2 (bridge (positions not given here) via pyrrolidine (IV); reading uncertain; also: macrocycle via pyrrolidine (IV)) [PepNat D4-major]', 'pKd', 7.74),
  ('[NMeF]DINNNKG-NH2 (bridge (positions not given here) via pyrrolidinyl‑spirobarbiturate (VII); reading uncertain; also: macrocycle via pyrrolidinyl-spirobarbiturate (VII)) [PepNat D7-major]', 'pKd', 8.42),
  ('VDINNNKG (macrocycle via N-phenyl fused di-pyrrolidine (II) minor diastereomer, N-Me-Val) [PepNat D18-minor]', 'pKd', 6.86),
  ('CVDINNNC (disulfide 1-8 (inferred)) [cyclic peptide 24]', 'pKd', 7.80),
  ('Ac-DINNN [iNOS peptide 23]', 'pKd', 6.63),
  ('[NMeL]DINNNKG-NH2 (bridge (positions not given here) via N‑methyl fused di‑pyrrolidine (I); reading uncertain; also: macrocycle via N-methyl fused di-pyrrolidine (I)) [PepNat D12-major]', 'pKd', 8.00),
  ('Ac-KEEKDINNNVKKT [iNOS peptide 22]', 'pKd', 8.15),
  ('VDINNNKG (macrocycle via N-phenyl fused di-pyrrolidine (II), N-Me-Val) [PepNat D18-major]', 'pKd', 8.66),
  ('[NMeF]DINNNKG-NH2 (bridge (positions not given here) via NP‑inspired fragment III; reading uncertain; also: macrocycle via NP-inspired fragment III) [PepNat D3-major]', 'pKd', 6.51),
  ('[NMeF]DINNNKG-NH2 (bridge (positions not given here) via N‑methyl fused di‑pyrrolidine (I); reading uncertain; also: macrocycle via N-methyl fused di-pyrrolidine (I)) [PepNat D1-major]', 'pKd', 7.48),
  ('DINNN (bridge (positions not given here) via ortho ether aromatic unit (VIII); reading uncertain; also: cyclized via ortho ether aromatic unit (VIII), attachment points not given here) [cyclic peptidomimetic 26]', 'pKd', 6.76),
  ('[NMeF]DINNNK (linker (positions not given here) via phenylmethanamine linker (IX); reading uncertain; also: cyclized via phenylmethanamine linker (IX), attachment points not given here) [macrocycle 27]', 'pKd', 7.06);
